Assay: Cytotoxicity against Sf9 cells after 48 hrs by WST-8 assay
Type: functional, cell-based
Conditions: Spodoptera frugiperda, Sf9, 48 h
MEASURED ENDPOINT: IC50 (µM)
Numbers only here, please. The scale is µM.

Some compounds with recorded IC50:
input_smiles=CC(C)C[C@@H]1C[C@@]2(CC[C@H]3C[C@@H]2C3(C)C)OC2=C1C(=O)C(C)(C)C(=O)C2(C)C measured_endpoint=IC50 test_result=63.5
input_smiles=CCC[C@H]1C[C@@]2(CC[C@H]3C[C@@H]2C3(C)C)OC2=C1C(=O)C(C)(C)C(=O)C2(C)C measured_endpoint=IC50 test_result=30.1
input_smiles=CC(C)C[C@H]1C[C@@]2(CC[C@H]3C[C@@H]2C3(C)C)OC2=C1C(=O)C(C)(C)C(=O)C2(C)C measured_endpoint=IC50 test_result=32.1

Now turn to the next compound.
QUERY: // Input: CCC[C@@H]1C[C@@]2(CC[C@H]3C[C@@H]2C3(C)C)OC2=C1C(=O)C(C)(C)C(=O)C2(C)C . Output its IC50 only.
RESULT: 99.2
